# Conditions: in isobutanol, 310.65 K
Measure name: solubility (mole fraction)

Find the recorded solubility (mole fraction) belonging to "S=c1[nH]c2ccccc2s1" and report it. 0.0336

###

# Conditions: in isopropanol, 275.65 K
Measure name: solubility (mole fraction)
API doc: respond with a numeric literal and nothing else, no unit.

Find the recorded solubility (mole fraction) belonging to "S=c1[nH]c2ccccc2s1" and report it. 0.0103

###

# Conditions: in isopropanol, 278.15 K
Measure name: solubility (mole fraction)
API doc: respond with a numeric literal and nothing else, no unit.

Find the recorded solubility (mole fraction) belonging to "S=c1[nH]c2ccccc2s1" and report it. 0.0111

###

# Conditions: in isopropanol, 283.15 K
Measure name: solubility (mole fraction)
API doc: respond with a numeric literal and nothing else, no unit.

Find the recorded solubility (mole fraction) belonging to "S=c1[nH]c2ccccc2s1" and report it. 0.0134

###

# Conditions: in methanol, 285.65 K
Measure name: solubility (mole fraction)
API doc: respond with a numeric literal and nothing else, no unit.

Find the recorded solubility (mole fraction) belonging to "S=c1[nH]c2ccccc2s1" and report it. 0.0111

###

# Conditions: in isobutanol, 293.15 K
Measure name: solubility (mole fraction)
API doc: respond with a numeric literal and nothing else, no unit.

Find the recorded solubility (mole fraction) belonging to "S=c1[nH]c2ccccc2s1" and report it. 0.0199

###

# Conditions: in isobutanol, 313.15 K
Measure name: solubility (mole fraction)

Find the recorded solubility (mole fraction) belonging to "S=c1[nH]c2ccccc2s1" and report it. 0.0361

###

# Conditions: in n-propanol, 290.65 K
Measure name: solubility (mole fraction)
API doc: respond with a numeric literal and nothing else, no unit.

Find the recorded solubility (mole fraction) belonging to "S=c1[nH]c2ccccc2s1" and report it. 0.0232

###

# Conditions: in n-propanol, 278.15 K
Measure name: solubility (mole fraction)
API doc: respond with a numeric literal and nothing else, no unit.

Find the recorded solubility (mole fraction) belonging to "S=c1[nH]c2ccccc2s1" and report it. 0.017

###

# Conditions: in methanol, 300.65 K
Measure name: solubility (mole fraction)
API doc: respond with a numeric literal and nothing else, no unit.

Find the recorded solubility (mole fraction) belonging to "S=c1[nH]c2ccccc2s1" and report it. 0.0178

###

# Conditions: in methanol, 273.15 K
Measure name: solubility (mole fraction)
API doc: respond with a numeric literal and nothing else, no unit.

Find the recorded solubility (mole fraction) belonging to "S=c1[nH]c2ccccc2s1" and report it. 0.00733

###

# Conditions: in toluene, 308.15 K
Measure name: solubility (mole fraction)
API doc: respond with a numeric literal and nothing else, no unit.

Find the recorded solubility (mole fraction) belonging to "S=c1[nH]c2ccccc2s1" and report it. 0.00482

###

# Conditions: in toluene, 285.65 K
Measure name: solubility (mole fraction)
API doc: respond with a numeric literal and nothing else, no unit.

Find the recorded solubility (mole fraction) belonging to "S=c1[nH]c2ccccc2s1" and report it. 0.00272

###

# Conditions: in 2-butanone, 285.65 K
Measure name: solubility (mole fraction)
API doc: respond with a numeric literal and nothing else, no unit.

Find the recorded solubility (mole fraction) belonging to "S=c1[nH]c2ccccc2s1" and report it. 0.0837

###

# Conditions: in isopropanol, 288.15 K
Measure name: solubility (mole fraction)
API doc: respond with a numeric literal and nothing else, no unit.

Find the recorded solubility (mole fraction) belonging to "S=c1[nH]c2ccccc2s1" and report it. 0.0161

Cited source: BigSolDB 2.1
